Assay: qHTS assay to identify small molecule antagonists of the thyroid receptor (TR) signaling pathway (AID 743065); note: nearly all actives have a fitted effect of over 55% in size
Conditions: GH3.TRE-Luc, T3-stimulated luciferase inhibition, 23.5 h; series mostly up to 70.3 µM
Excerpt: U.S. Tox21 Program National Center for Advancing Translational Sciences [NCATS] NIH Chemical Genomics Center [NCGC] U.S. Environmental Protection Agency [EPA] National Institutes of Environmental Health Sciences [NIEHS] National Toxicology Program [NTP] U.S. Food and Drug Administration [FDA] Tox21 Assay Overview: Thyroid receptor (TR), a nuclear hormone receptor, plays an important role in development, proliferation, differentiation, metabolism, brain function, and cardiovascular system. […]
Inconclusive results are not listed. Active and inactive are the calls of the source. Calls come from the whole dose curve; as a rule, active = well fitted inhibition curve with a large enough effect in the repeat runs; inconclusive = weak or mixed curves; inactive = no such curve, though single readings can be large or run the other way.
Hi there, use one of these labels in your reply, thanks! yes (1) = active, no (0) = inactive

molecule: Nc1ccc(-c2ccc(F)cc2)cc1
cat: no (0)

molecule: Nc1ccccc1Nc1ccccc1
cat: yes (1)

molecule: CC(C)=CCCC(C)C=O (stereo not drawn)
cat: no (0)

molecule: CC(C)(C)N
cat: no (0)

molecule: Cc1cc(C)c(C)c(O)c1
cat: no (0)

Prompt: I'd appreciate the recorded outcome for CC(C)(C(=O)O)c1ccc(C(O)CCCN2CCC(C(O)(c3ccccc3)c3ccccc3)CC2)cc1 (stereo not drawn) from this test.
Completion: no (0)

Prompt: I'd appreciate the recorded outcome for Cc1c(N=C=O)cccc1N=C=O from this test.
Completion: no (0)

Prompt: I'd appreciate the recorded outcome for O=C1c2ccccc2C(=O)C1c1ccc2cc(S(=O)(=O)O)cc(S(=O)(=O)O)c2n1 from this test.
Completion: no (0)

====

Target: Cytochrome P450 3A4 (Homo sapiens) (UniProt P08684)
Sequence (P08684 whole entry, looked up): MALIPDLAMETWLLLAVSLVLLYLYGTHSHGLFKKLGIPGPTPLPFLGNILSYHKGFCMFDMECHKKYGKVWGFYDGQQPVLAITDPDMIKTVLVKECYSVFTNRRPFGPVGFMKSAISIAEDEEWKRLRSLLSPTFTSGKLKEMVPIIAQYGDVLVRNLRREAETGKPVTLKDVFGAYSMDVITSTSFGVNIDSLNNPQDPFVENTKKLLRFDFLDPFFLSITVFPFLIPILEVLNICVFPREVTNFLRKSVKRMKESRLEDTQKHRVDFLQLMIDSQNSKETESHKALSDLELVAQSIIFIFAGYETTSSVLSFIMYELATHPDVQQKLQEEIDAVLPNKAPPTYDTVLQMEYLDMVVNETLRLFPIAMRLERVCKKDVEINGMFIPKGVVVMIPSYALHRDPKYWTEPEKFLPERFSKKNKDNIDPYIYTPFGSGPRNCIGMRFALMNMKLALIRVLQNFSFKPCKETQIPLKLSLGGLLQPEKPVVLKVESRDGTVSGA
Test: Cytochrome P450 Family 3 Subfamily A Member 4 (CYP3A4) small molecule antagonists: luciferase reporter qHTS assay (AID 1671201); note: nearly all actives have a fitted effect of over 50% in size
Conditions: P450-Glo CYP3A4 enzyme, luciferin luminescence, 1 h; series mostly up to 115 µM
Records with an inconclusive call do not appear. Activity calls are given as the source filed them. Calls follow the shape of the dose curve; as a rule, active = well fitted inhibition curve with a large enough effect in the repeat runs; inconclusive = weak or mixed curves; inactive = no such curve, though single readings can be large or run the other way.
Hi there, use one of these labels in your reply, thanks! active, inactive

Would you please look over these solved cases?
compound: O=C(O)c1cccnc1Nc1cccc(C(F)(F)F)c1
cat: inactive

compound: CC/C=C\CCO
cat: inactive

compound: CC(C)(O)C(=O)O
cat: inactive

compound: CC(C)=CCC/C(C)=C/C=N/O
cat: active

compound: CC1(COc2ccc(CC3SC(=O)NC3=O)cc2)CCCCC1 (configuration not stated)
cat: inactive

Prompt: I'd appreciate the recorded outcome for CCCCCO from this test.
Completion: inactive

Prompt: I'd appreciate the recorded outcome for CNc1ccccc1 from this test.
Completion: inactive

====

Test: A CellTox Green Cytotoxicity Assay to monitor cytotoxicity in HEK293 cells - 8 hour (AID 1224884); note: nearly all actives have a fitted effect of over 35% in size
Details: CellTox Green fluorescence; series mostly up to 76.8 µM
Results filed as inconclusive are left out. Active and inactive are the calls of the source. Calls come from the whole dose curve; as a rule, active = well fitted activation curve with a large enough effect in the repeat runs; inconclusive = weak or mixed curves; inactive = flat fitted curve, though single readings scatter.
Hi there, use one of these labels in your reply, thanks! True (active), False (inactive)

Would you please look over these solved cases?
compound: Clc1nc2ccccc2nc1Cl
cat: False

compound: O=C(C1CCCCC1)N1CC(=O)N2CCCc3ccccc3C2C1 (stereo not given)
cat: False

compound: O=C(O)c1ccc(O)c(O)c1
cat: False

compound: Cc1c(-c2cccnc2)c2ccccc2n1CCCCC(=O)O
cat: False

Prompt: I'd appreciate the recorded outcome for CCOc1ccccc1O from this test.
Completion: False

Prompt: I'd appreciate the recorded outcome for CCCCCCCCCC(C)C=O (stereo not given) from this test.
Completion: True

Prompt: I'd appreciate the recorded outcome for O=C1C=CCCC1 from this test.
Completion: False

Prompt: I'd appreciate the recorded outcome for Cc1cc(C)c(C)c(O)c1 from this test.
Completion: False

Prompt: I'd appreciate the recorded outcome for CCC(CC)C(=O)O from this test.
Completion: False

Prompt: I'd appreciate the recorded outcome for COc1ccc(CN(CCN(C)C)c2ncccn2)cc1 from this test.
Completion: False

Prompt: I'd appreciate the recorded outcome for CCc1cnc(C(=O)O)c(C(=O)O)c1 from this test.
Completion: False

Prompt: I'd appreciate the recorded outcome for COC(=O)c1cc(Cl)ccc1[N+](=O)[O-] from this test.
Completion: False

Prompt: I'd appreciate the recorded outcome for Cc1c(Nc2ncccc2C(=O)O)cccc1C(F)(F)F from this test.
Completion: False

Prompt: I'd appreciate the recorded outcome for C/C(=C\C(C)CC(C)CC(C)C)C1CC(=O)OC1=O (stereo not given) from this test.
Completion: False

Prompt: I'd appreciate the recorded outcome for OCCCO from this test.
Completion: False
